The entries below are paired with their reported protein stability index.
B1: CPXM2 (parent)
chain: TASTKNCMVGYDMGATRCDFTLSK

# Variants of: B1
# TEST_DESCRIPTION: protein stability index of a GFP-peptide fusion (GPS, HEK-293T) (PSI 1-6); higher = more stable;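 note: lentivirally expressed fusions sorted by FACS into six bins by GFP to DsRed ratio, PSI derived from sequencing read proportions per bin multiplied by bin number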
# REPORTED_CONDITIONS: c terminus: a fixed tail appended
ATTRIBUTE_MEASURED: protein stability index

> print(dat)
    mutation.descriptor  observed.value
 1                  A2S            2.58
 2                  T4I            2.25
 3                 M13L            2.58
 4                 A15D            2.78
 5                 G10I            1.67
 6                  A2R            2.68
 7                 D19T            2.36
 8                  A2H            2.26
 9                 T16K            2.74
10                  T1N            2.51
11                 T21L            2.52
12                 G14A            2.89
13                  K5T            2.35
14                 F20E            4.26
15                  M8C            1.77
16                  N6L            1.83
17                  C7S            3.77
18                  T4K            2.01
19                 K24N            2.03
20                 A15V            3.16
21                  C7H            3.48
22                 R17P            3.57
23                  T1V            1.61
24                 K24C            2.38
25                 C18F            2.42
26                 F20A            2.51
27                 K24L            1.52
28                  T1I             1.8
29                  M8H            2.76
30                 Y11I            2.06
31                 Y11A            2.92
32                 K24D            2.37
33                 A15L            2.71
34                 A15Q            2.77
35                 G10V            2.72
36                  V9Y               2
37                  V9R            2.18
38                  A2I             1.8
39                 D19K            2.67
40                 M13F            2.01
41                  M8T            2.42
42                 G14S             2.5
43                 F20G             3.5
44                 S23R            3.34
45                 D12I            1.58
46                 Y11P            2.31
47                  T4C            2.65
48                  N6H            2.04
49                 M13R             2.5
50                  N6K            1.87
51                 C18Q            1.75
52                 D12N            2.02
53                 G14I            2.31
54                 A15F            2.51
55                 G10C             2.2
56                 Y11D            3.33
57                 M13Q            3.19
58                  C7M            3.06
59                 T21S            2.21
60                  K5S            2.63
61                  A2L            1.99
62                 T21H            3.16
63                 K24S            2.22
64                  N6M            2.34
65                 T16M            2.28
66                 Y11C            2.07
67                 C18M            2.59
68                 D19Y            2.36
69                 T16E            2.97
70                 L22V            2.52
71                  T4L            1.85
72                  K5L            2.29
73                 S23V             2.3
74                  T1W            1.59
75                 G10M            1.96
76                 Y11Q               3
77                 L22M            2.39
78                 M13D            3.76
79                 G10L            2.38
80                 F20Q            3.05
81                 C18T            2.66
